system: IGROV1 ovarian; test: NCI tumour cell line growth inhibition, 48 h
measured endpoint: TGI (µM)
// note: answer is a bare numeric in µM

Exercise: Tell me measured TGI for c1ccc(Cc2cc(-c3ccccc3)n[nH]2)cc1 please.
Solution: 34

Exercise: Please report TGI for the following molecule: COc1ccc(NC(=O)Nc2ccccc2CNc2nc(Nc3ccc(OCCN4CCCC4)cc3)ncc2Cl)cc1
Solution: 1.66

Exercise: Given the molecule O=C(N=Nc1c(O)[nH]c2ccccc12)C(O)(c1ccccc1)c1ccccc1 , write its reported TGI.
Solution: 39.6

Exercise: # return recorded TGI for entry N=C1N(/N=C/c2ccccn2)C(=Nc2ccccc2)C(=S)N1c1ccccc1
Solution: 18.8

* * *

Below, each of the molecules is paired with its reported GI50 value.
tested on: K-562 leukemia; experiment: NCI tumour cell line growth inhibition, 48 h

Examples with their reported GI50 follow.
[
  {
    "molecule": "CCn1c(-c2nonc2N)nc2c(C#CC(C)(C)O)nc(CN3CCCC3)cc21",
    "GI50": "> 25 µM"
  },
  {
    "molecule": "COc1ccc(C2C(C#N)=C(N)Oc3c2sc2c(F)cccc32)cc1 (stereo not given)",
    "GI50": "0.493 µM"
  }
]

Exercise: For the molecule C/C(=C1\SC(=NCc2cccs2)NC1=O)c1ccc2ncccc2c1 , report GI50.
Solution: 8.71 µM

Exercise: Input COc1cc2c(/C=C3\C(=O)N(C)c4ccc(O)cc43)c[nH]c2cc1C , output reported GI50.
Solution: 4.67 µM

Exercise: For the molecule O=C1C(Br)=CC2C1C1C3CCC3C2(Br)C12OCCO2 (stereo not given) , give its measured GI50 value.
Solution: 2.98 µM

* * *

tested on: M19-MEL melanoma; experiment: NCI tumour cell line growth inhibition, 48 h
Reported TGI values for the following molecules.

[
  {
    "molecule": "O=C(NCc1ccccc1)c1cc2ccc(O)c(O)c2cn1",
    "target system": "M19-MEL melanoma",
    "TGI": "3.23 µM"
  },
  {
    "molecule": "O=C1Nc2ccccc2C12CCCC2",
    "target system": "M19-MEL melanoma",
    "TGI": "> 100 µM"
  },
  {
    "molecule": "COc1ccc2c(c1)CCc1c(C(C)=O)c3ccccc3n1C2",
    "target system": "M19-MEL melanoma",
    "TGI": "> 100 µM"
  },
  {
    "molecule": "CC(c1ccccc1)N1O[C@]12CC[C@@]1(C)C(CCCC13OCCO3)C2 (some centres undefined)",
    "target system": "M19-MEL melanoma",
    "TGI": "51 µM"
  },
  {
    "molecule": "COc1cc(C)cc2c1[nH]c1ccccc12",
    "target system": "M19-MEL melanoma",
    "TGI": "> 25 µM"
  }
]

Exercise: Report the value of TGI obtained on M19-MEL melanoma for O=C(CC1C(=O)Nc2ccccc2S1(=O)=O)Nc1cc(Cl)ccc1Cl (centres undefined) .
Solution: 34.1 µM

Exercise: Look up M19-MEL melanoma data: TGI of CN=c1ss/c(=N\C(=S)N(C)C)n1-c1ccccc1 , then report it.
Solution: > 100 µM

* * *

tested on: HCC-2998 colon; assay: NCI tumour cell line growth inhibition, 48 h
Recorded TGI for the following molecules
Give a bare numeral; the unit µM is implied.

Some solved entries appear below for comparison.
[
  {
    "smiles repr": "C=CCNCCN1C(=O)c2ccc3c4c(ccc(c24)C1=O)C(=O)N(CCNCC=C)C3=O",
    "target system": "HCC-2998 colon",
    "TGI / µM": 1.55
  },
  {
    "smiles repr": "O=C(NCCCN1CCC(N2CCCCC2)CC1)C1=Cc2cc(Br)ccc2OC1",
    "target system": "HCC-2998 colon",
    "TGI / µM": 27.2
  }
]

Now turn to the next molecule.
Exercise: Name the recorded TGI of the item CN1CCN(c2ccc3[nH]c(C4=C(O)c5nc(CCl)n(C)c5C(=O)C4=O)nc3n2)CC1 in your answer.
Solution: 21.4

* * *

// values below are reported TGI
tested on: SK-MEL-28 melanoma; assay: NCI tumour cell line growth inhibition, 48 h
Record the value in µM, omitting the unit from your answer.

[
  {
    "compound": "Nc1cccc(CCN2CCN(CCCc3ccccc3)CC2)c1",
    "measured endpoint": "TGI",
    "units label": "µM",
    "reported result": 88.4
  },
  {
    "compound": "CNC(=O)Oc1ccc(C(=S)Nc2ccc(Br)cc2)cc1",
    "measured endpoint": "TGI",
    "units label": "µM",
    "reported result": 62.7
  },
  {
    "compound": "COc1ccc(C2C(C#N)=C(N)Oc3c2sc2c(F)cccc32)cc1 (stereo not drawn)",
    "measured endpoint": "TGI",
    "units label": "µM",
    "reported result": 23.2
  },
  {
    "compound": "O=C1C(NCCF)=C(Cl)C(=O)c2ncccc21",
    "measured endpoint": "TGI",
    "units label": "µM",
    "reported result": 2
  },
  {
    "compound": "CC(=O)OC1CC(OC2C(O)CC(OC3C(O)CC(OC4CCC5(C)C(CCC6C5CCC5(C)C(C7=CC(=O)OC7)C(O)CC65O)C4)OC3C)OC2C)OC(C)C1OC1OC(CO)C(O)C(O)C1O (stereo not drawn)",
    "measured endpoint": "TGI",
    "units label": "µM",
    "reported result": 3.61
  }
]

Exercise: Answer with the recorded TGI of CCCN1CCN(c2ccc3nc(-c4ccc5nc(-c6ccc(C(F)(F)F)cc6)[nH]c5c4)[nH]c3c2)CC1 only.
Solution: 3.25

Exercise: State its TGI for this compound: COc1cccc2c1C(=O)c1c(O)c3c(c(O)c1C2=O)C[C@@](O)(C(C)=O)C[C@@H]3O[C@H]1C[C@H](N)[C@H](O)[C@H](C)O1
Solution: 0.68

Exercise: For Cc1cc(Nc2nc(-c3ccc(F)cc3)nc3ccccc23)n[nH]1 , write its TGI.
Solution: 21.7

* * *

test system: U251 CNS
Hi! Could you answer with just one of these? TRUE for active, FALSE for inactive

[
  {
    "compound": "CCn1c(-c2nonc2N)nc2c(C#CC(C)(C)O)nc(CN3CCCC3)cc21",
    "category": "FALSE"
  }
]

Exercise: Could you check what this test reported for CSc1nc(N)cc(Oc2ccc(-c3nc(Nc4cccc(C(F)(F)F)c4)n[nH]3)cc2)n1 ?
Solution: FALSE

Exercise: GET /call?item= CN1CCN(c2ccc3[nH]c(C4=C(O)c5nc(CCl)n(C)c5C(=O)C4=O)nc3n2)CC1 returns the recorded outcome of this test.
Solution: FALSE

Exercise: Which outcome was assigned to Clc1ccc(Nc2nnc(CNc3ccccc3)c3ccccc23)cc1 in this test?
Solution: FALSE

Exercise: What call does the record list for CS(=O)(=O)CCN(CC#N)Cc1ccc(-c2ccc3ncnc(Nc4ccc(OCc5cccc(F)c5)c(Cl)c4)c3c2)o1 ?
Solution: FALSE

Exercise: // param item: C=CCNCCN1C(=O)c2ccc3c4c(ccc(c24)C1=O)C(=O)N(CCNCC=C)C3=O ; yields the recorded call
Solution: FALSE

Exercise: Called result for C/C(=C1\SC(=NCc2cccs2)NC1=O)c1ccc2ncccc2c1
Solution: FALSE

Exercise: Could you check what this test reported for O=C1C(Br)=CC2C1C1C3CCC3C2(Br)C12OCCO2 (stereo unspecified) ?
Solution: FALSE

* * *

test system: K-562 leukemia; assay: NCI tumour cell line growth inhibition, 48 h
TGI for assorted molecules
Expressed in µM, but write only the number.

Exercise: Please report TGI for the following molecule: COc1cccc2c1C(=O)c1c(O)c3c(c(O)c1C2=O)C[C@@](O)(C(C)=O)C[C@@H]3O[C@H]1C[C@H](N)[C@H](O)[C@H](C)O1
Solution: 0.868

* * *

system: 786-0 renal; test: NCI tumour cell line growth inhibition, 48 h
measured endpoint: TGI

[
  {
    "compound": "CC(C)NC(=O)OCc1c(COC(=O)NC(C)C)c(-c2ccc[n+](COC(=O)C(C)C)c2)n2c1CCC2",
    "measured endpoint": "TGI",
    "reported result": "> 100 µM"
  },
  {
    "compound": "Cn1c(=O)c2ccccc2c2ccccc21",
    "measured endpoint": "TGI",
    "reported result": "> 100 µM"
  },
  {
    "compound": "CN(C)c1nc(N)nc(CCl)n1",
    "measured endpoint": "TGI",
    "reported result": "58.3 µM"
  },
  {
    "compound": "COc1c2c(cc3occ(-c4ccc(CC=C(C)C)cc4)c(=O)c13)OC(C)(C)C=C2",
    "measured endpoint": "TGI",
    "reported result": "> 100 µM"
  },
  {
    "compound": "C=C1CCC(OC(C)=O)C2(C)C(OC(C)=O)CC3OC3(C)C2C(OC(C)=O)C2C(C)C(=O)OC2C1Cl (centres undefined)",
    "measured endpoint": "TGI",
    "reported result": "> 100 µM"
  },
  {
    "compound": "O=C(Cc1nc(-c2ccccc2)cc(=O)n1-c1ccccc1Cl)c1ccncc1",
    "measured endpoint": "TGI",
    "reported result": "> 100 µM"
  },
  {
    "compound": "Nc1ccc(Cc2ccc(N=Cc3ccc(OCc4cccc(COc5ccc(C=Nc6ccc(Cc7ccc(N)cc7)cc6)cc5)n4)cc3)cc2)cc1",
    "measured endpoint": "TGI",
    "reported result": "> 100 µM"
  },
  {
    "compound": "S=c1nc2sc3c(c2c(Nc2ccccc2)[nH]1)CCCC3",
    "measured endpoint": "TGI",
    "reported result": "> 100 µM"
  },
  {
    "compound": "OC/C=C/[C@H](OCc1ccccc1)[C@H](/C=C/CO)OCc1ccccc1",
    "measured endpoint": "TGI",
    "reported result": "> 100 µM"
  },
  {
    "compound": "CN(C(=O)Nc1ccc(Cl)c(Cl)c1)C1CCCC[C@@H]1N1CCCC1 (some centres undefined)",
    "measured endpoint": "TGI",
    "reported result": "> 100 µM"
  }
]

Exercise: Recall and state the measured TGI for O=c1oc2ccc(Br)cc2c(=O)n1-c1ccc(Br)cc1F .
Solution: 4.91 µM

Exercise: Give a short answer stating reported TGI for O=C1C(NCCF)=C(Cl)C(=O)c2ncccc21 .
Solution: 2.51 µM

Exercise: Given C/C(=C1\SC(=NCc2cccs2)NC1=O)c1ccc2ncccc2c1 , respond with its TGI.
Solution: > 25 µM

Exercise: Quickly give me recorded TGI for C#C[C@]1(O)CCC2C3CCc4cc(Oc5nc(F)nc(-n6c(C)nc7cc8ccccc8cc76)n5)ccc4C3CCC21C (some centres undefined)
Solution: > 100 µM
